Cited source: the array DNA melting data of Ke et al. (doi:10.1101/2024.01.08.574731)

# Assay details: folding enthalpy; higher = less favourable; fluorescence melt of hairpins on a sequencing array, two-state fit
# Condition description: sodium 0.088 M
Mark yes (1) for reported folding enthalpy of -30 kcal/mol or greater; mark no (0) for anything smaller.

Check if folding enthalpy >= -30 kcal/mol (inclusive). Item: GGACCCGAAAGGGGATCC ((((((....)))..)))
yes (1)

Is the recorded value of folding enthalpy equal to or greater than -30 kcal/mol for this sequence? GCGACCGGAAACGATCGC ((((.((....)).))))
no (0)

Given GTCGACGAAAGTCTAGAC ((((((....)))..))) , state whether its folding enthalpy is at least -30 kcal/mol.
yes (1)

Exam item: decide whether the reported folding enthalpy for GTTGCAGGAAACTGCGAC ((.((((....)))).)) is at least -30 kcal/mol.
yes (1)

I'd appreciate it if you could say whether GTAGCCGAAAGGCAGTAC ((((((....)))..))) has folding enthalpy at least equal to -30 kcal/mol.
yes (1)

API: above_or_equal(metric=folding enthalpy, cutoff=-30 kcal/mol) for item CGTGACCGGAAACGGACG (((..(((....))))))
yes (1)

Please tell me: is the sequence GATCAAAAAATTGATC ((((((....)))))) at or over -30 kcal/mol in terms of folding enthalpy?
yes (1)

Hi team, for GTGTGGGAAACCACAC ((((((....)))))) , is the recorded folding enthalpy at or above -30 kcal/mol?
no (0)

# bool: folding enthalpy of GCTTATGAAAATAAGC ((((((....)))))) >= -30 kcal/mol
no (0)

In plain terms: is recorded folding enthalpy at least -30 kcal/mol for GGCGTCGAAAGACCCGCC ((((((....)))..))) ?
yes (1)

Quick check: does GGTGTAGGAAACTACATC (.(((((....))))).) have folding enthalpy greater than or equal to -30 kcal/mol?
yes (1)
